// data source = patent US20060067886A1

- protocol-description: Biodistribution of radiometal-DOTA-BBN conjugates in CF1 normal mice
- protocol-conditions: 1 hour post-injection
quantity-name: Avg % ID/gm, Kidney (% ID/gm)
Numbers only, in % ID/gm.

Examples from the recorded data:
1. CSCC[C@H](NC(=O)[C@H](CC(C)C)NC(=O)[C@H](Cc1cnc[nH]1)NC(=O)CNC(=O)[C@@H](NC(=O)[C@H](C)NC(=O)[C@H](Cc1c[nH]c2ccccc12)NC(=O)[C@H](CCC(N)=O)NC(=O)CCCCCCCNC(=O)CN1CCN(CC(=O)O)CCN(CC(=O)O)CCN(CC(=O)O)CC1)C(C)C)C(N)=O [177Lu-DOTA-8-Aoc-BBN[7-14]NH2] [metal not drawn]	4.97
2. CSCC[C@H](NC(=O)[C@H](CC(C)C)NC(=O)[C@H](Cc1c[nH]cn1)NC(=O)CNC(=O)[C@@H](NC(=O)[C@H](C)NC(=O)[C@H](Cc1c[nH]c2ccccc12)NC(=O)[C@H](CCC(N)=O)NC(=O)CCCCNC(=O)CN1CCN(CC(=O)O)CCN(CC(=O)O)CCN(CC(=O)O)CC1)C(C)C)C(N)=O [149Pm-DOTA-5-Ava-BBN[7-14]NH2]	2.81

Hi there! I need Avg % ID/gm, Kidney for each item below, if you can.
1. CSCC[C@H](NC(=O)[C@H](CC(C)C)NC(=O)[C@H](Cc1c[nH]cn1)NC(=O)CNC(=O)[C@@H](NC(=O)[C@H](C)NC(=O)[C@H](Cc1c[nH]c2ccccc12)NC(=O)[C@H](CCC(N)=O)NC(=O)CCCCNC(=O)CN1CCN(CC(=O)O)CCN(CC(=O)O)CCN(CC(=O)O)CC1)C(C)C)C(N)=O [177Lu-DOTA-5-Ava-BBN[7-14]NH2] [metal not drawn]
2. CSCC[C@H](NC(=O)[C@H](CC(C)C)NC(=O)[C@H](Cc1c[nH]cn1)NC(=O)CNC(=O)[C@@H](NC(=O)[C@H](C)NC(=O)[C@H](Cc1c[nH]c2ccccc12)NC(=O)[C@H](CCC(N)=O)NC(=O)CCCCCCCCCCNC(=O)CN1CCN(CC(=O)O)CCN(CC(=O)O)CCN(CC(=O)O)CC1)C(C)C)C(N)=O [111In-DOTA-11-Aun-BBN[7-14]NH2] [metal not drawn]

2.03
2.06

Working through the 3 compounds below one at a time, give Avg % ID/gm, Kidney for each.
1. CSCC[C@H](NC(=O)[C@H](CC(C)C)NC(=O)[C@H](Cc1cnc[nH]1)NC(=O)CNC(=O)[C@@H](NC(=O)[C@H](C)NC(=O)[C@H](Cc1c[nH]c2ccccc12)NC(=O)[C@H](CCC(N)=O)NC(=O)CCNC(=O)CN1CCN(CC(=O)O)CCN(CC(=O)O)CCN(CC(=O)O)CC1)C(C)C)C(N)=O [177Lu-DOTA-β-Ala-BBN[7-14]NH2] [metal not drawn]
2. CSCC[C@H](NC(=O)[C@H](CC(C)C)NC(=O)[C@H](Cc1cnc[nH]1)NC(=O)CNC(=O)[C@@H](NC(=O)[C@H](C)NC(=O)[C@H](Cc1c[nH]c2ccccc12)NC(=O)[C@H](CCC(N)=O)NC(=O)CCCCCCCNC(=O)CN1CCN(CC(=O)O)CCN(CC(=O)O)CCN(CC(=O)O)CC1)C(C)C)C(N)=O [111In-DOTA-8-Aoc-BBN[7-14]NH2] [metal not drawn]
3. CSCC[C@H](NC(=O)[C@H](CC(C)C)NC(=O)[C@H](Cc1cnc[nH]1)NC(=O)CNC(=O)[C@@H](NC(=O)[C@H](C)NC(=O)[C@H](Cc1c[nH]c2ccccc12)NC(=O)[C@H](CCC(N)=O)NC(=O)CN1CCN(CC(=O)O)CCN(CC(=O)O)CCN(CC(=O)O)CC1)C(C)C)C(N)=O [149Pm-DOTA-0-BBN[7-14]NH2]

1: 1.88; 2: 2.37; 3: 1.04

Working through the 3 compounds below one at a time, give Avg % ID/gm, Kidney for each.
1. CSCC[C@H](NC(=O)[C@H](CC(C)C)NC(=O)[C@H](Cc1c[nH]cn1)NC(=O)CNC(=O)[C@@H](NC(=O)[C@H](C)NC(=O)[C@H](Cc1c[nH]c2ccccc12)NC(=O)[C@H](CCC(N)=O)NC(=O)CCCCCCCCCCNC(=O)CN1CCN(CC(=O)O)CCN(CC(=O)O)CCN(CC(=O)O)CC1)C(C)C)C(N)=O [177Lu-DOTA-11-Aun-BBN[7-14]NH2] [metal not drawn]
2. CSCC[C@H](NC(=O)[C@H](CC(C)C)NC(=O)[C@H](Cc1cnc[nH]1)NC(=O)CNC(=O)[C@@H](NC(=O)[C@H](C)NC(=O)[C@H](Cc1c[nH]c2ccccc12)NC(=O)[C@H](CCC(N)=O)NC(=O)CCNC(=O)CN1CCN(CC(=O)O)CCN(CC(=O)O)CCN(CC(=O)O)CC1)C(C)C)C(N)=O [149Pm-DOTA-β-Ala-BBN[7-14]NH2]
3. CSCC[C@H](NC(=O)[C@H](CC(C)C)NC(=O)[C@H](Cc1cnc[nH]1)NC(=O)CNC(=O)[C@@H](NC(=O)[C@H](C)NC(=O)[C@H](Cc1c[nH]c2ccccc12)NC(=O)[C@H](CCC(N)=O)NC(=O)CN1CCN(CC(=O)O)CCN(CC(=O)O)CCN(CC(=O)O)CC1)C(C)C)C(N)=O [177Lu-DOTA-0-BBN[7-14]NH2] [metal not drawn]

1. 4.97
2. 2.05
3. 1.21
